- Target desc: PDE4B (Mus musculus)
- Sequence (Q8VBU5 1-721): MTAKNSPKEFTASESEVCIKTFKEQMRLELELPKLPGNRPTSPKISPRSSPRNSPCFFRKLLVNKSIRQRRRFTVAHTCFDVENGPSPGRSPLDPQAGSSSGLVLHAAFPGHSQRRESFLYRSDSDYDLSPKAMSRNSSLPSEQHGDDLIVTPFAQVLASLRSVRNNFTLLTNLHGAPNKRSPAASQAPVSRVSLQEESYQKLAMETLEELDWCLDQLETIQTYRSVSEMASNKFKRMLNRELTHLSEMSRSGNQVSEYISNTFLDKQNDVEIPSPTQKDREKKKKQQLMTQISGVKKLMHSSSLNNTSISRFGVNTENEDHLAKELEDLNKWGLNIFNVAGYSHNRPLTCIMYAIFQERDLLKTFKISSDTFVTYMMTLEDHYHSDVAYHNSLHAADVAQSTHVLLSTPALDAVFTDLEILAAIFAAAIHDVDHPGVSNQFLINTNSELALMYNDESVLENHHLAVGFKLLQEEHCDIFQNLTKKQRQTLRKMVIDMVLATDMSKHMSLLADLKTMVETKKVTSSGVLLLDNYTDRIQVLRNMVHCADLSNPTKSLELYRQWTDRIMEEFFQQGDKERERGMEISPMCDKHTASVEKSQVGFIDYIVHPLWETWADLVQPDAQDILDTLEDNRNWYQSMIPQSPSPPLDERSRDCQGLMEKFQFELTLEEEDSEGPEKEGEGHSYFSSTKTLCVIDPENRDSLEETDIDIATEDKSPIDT
Observed property: pIC50
Scale: negative log10 of molar concentration, which is what pIC50 denotes.

Supply recorded pIC50 for O=C(O)Cc1ccc(Cc2cc(-c3cccc(Cl)c3)nc(C(F)(F)F)c2)cc1 [BPN14770] here. 5.67
